Settings: in acetone, 318.15 K
Reported Metric: solubility (mole fraction)
Lab note: record the figure alone, no unit after it.

Would you mind telling me what solubility (mole fraction) value was observed for O=C1C(CCS(=O)c2ccccc2)C(=O)N(c2ccccc2)N1c1ccccc1 (stereo unspecified) ?
0.0524

###

Conditions: in n-butanol, 318.15 K
Reported Metric: solubility (mole fraction)
Lab note: record the figure alone, no unit after it.

Would you mind telling me what solubility (mole fraction) value was observed for O=C1C(CCS(=O)c2ccccc2)C(=O)N(c2ccccc2)N1c1ccccc1 (stereo unspecified) ?
0.0129

###

Details: in sec-butanol, 318.15 K
Reported Metric: solubility (mole fraction)
Lab note: record the figure alone, no unit after it.

Would you mind telling me what solubility (mole fraction) value was observed for O=C1C(CCS(=O)c2ccccc2)C(=O)N(c2ccccc2)N1c1ccccc1 (stereo unspecified) ?
0.0109
